pIC50: −log10 of the molar value.
Quick note: these are pIC50 numbers for system: UniProt Q9Y2U5
Sequence (Q9Y2U5 whole entry): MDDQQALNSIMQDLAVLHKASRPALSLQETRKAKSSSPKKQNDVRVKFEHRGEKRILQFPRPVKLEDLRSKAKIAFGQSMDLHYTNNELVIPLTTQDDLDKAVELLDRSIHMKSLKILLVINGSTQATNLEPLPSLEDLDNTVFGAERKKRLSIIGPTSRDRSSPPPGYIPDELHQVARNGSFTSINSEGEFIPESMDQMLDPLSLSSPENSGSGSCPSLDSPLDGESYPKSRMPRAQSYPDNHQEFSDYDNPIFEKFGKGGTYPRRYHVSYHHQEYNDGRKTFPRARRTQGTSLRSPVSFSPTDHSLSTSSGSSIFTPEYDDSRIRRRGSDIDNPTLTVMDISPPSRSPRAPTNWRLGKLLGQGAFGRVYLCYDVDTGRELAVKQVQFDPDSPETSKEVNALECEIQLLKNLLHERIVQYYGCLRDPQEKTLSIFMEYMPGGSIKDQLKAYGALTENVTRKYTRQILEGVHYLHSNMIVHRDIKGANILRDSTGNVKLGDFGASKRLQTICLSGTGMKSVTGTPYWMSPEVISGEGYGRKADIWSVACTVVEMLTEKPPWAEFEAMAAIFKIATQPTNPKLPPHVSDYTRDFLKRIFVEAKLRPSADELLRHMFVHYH

Some entries whose results are on file:
>  <compound>
CCCS(=N)(=O)Nc1ccc(F)c(C(=O)c2c[nH]c3ncc(-c4ccc(Cl)cc4)cc23)c1F (centres unmarked)

>  <pIC50>
< 5.00

$$$$
>  <compound>
CCCCS(=O)(=O)Nc1cccc(C(=O)c2c[nH]c3ncc(-c4ccc(OC)cc4Cl)cc23)c1F

>  <pIC50>
< 5.00

$$$$
>  <compound>
CS(=O)(=O)Nc1cccc(C(=O)c2c[nH]c3ncc(-c4ccccc4Cl)cc23)c1F

>  <pIC50>
5.00 to 6.00

$$$$
>  <compound>
CCCS(=O)(=O)Nc1ccc(F)c(C(=O)c2c[nH]c3ncc(-c4ccc(F)cc4C)cc23)c1F

>  <pIC50>
< 5.00

$$$$
>  <compound>
CCCS(=O)(=O)Nc1ccc(F)c(C(=O)c2c[nH]c3ncc(-c4ccccc4Cl)cc23)c1F

>  <pIC50>
5.00 to 6.00

$$$$

Respectfully, I request pIC50 for each entry included below.
1. CCCCS(=O)(=O)Nc1cccc(C(=O)c2c[nH]c3ncc(-c4cc5c(cc4Cl)OCO5)cc23)c1F
2. CCCS(=O)(=O)Nc1ccc(F)c(C(=O)c2c[nH]c3ncc(-c4ccc(F)cc4Cl)cc23)c1F
3. CCCS(=O)(=O)Nc1ccc(F)c(C(=O)c2c[nH]c3ncc(-c4cccc(N)c4)cc23)c1F

1. < 5.00
2. 5.00 to 6.00
3. 5.00 to 6.00

----------
Biological target: JNK1 (Homo sapiens, UniProt P45983)
Sequence (P45983 1-384 isoform P45983-2): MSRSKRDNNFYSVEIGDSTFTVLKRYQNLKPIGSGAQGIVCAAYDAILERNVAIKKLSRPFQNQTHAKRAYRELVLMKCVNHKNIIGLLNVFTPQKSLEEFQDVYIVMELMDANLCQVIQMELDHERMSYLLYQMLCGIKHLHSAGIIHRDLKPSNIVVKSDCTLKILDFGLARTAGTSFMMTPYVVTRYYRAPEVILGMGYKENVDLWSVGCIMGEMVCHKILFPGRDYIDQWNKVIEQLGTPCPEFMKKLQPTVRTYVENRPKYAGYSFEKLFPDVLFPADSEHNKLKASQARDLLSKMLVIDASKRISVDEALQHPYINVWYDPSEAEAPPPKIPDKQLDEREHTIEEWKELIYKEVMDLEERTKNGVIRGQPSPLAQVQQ
Assay: KINOMEscan competition binding assay, selectivity JNK1 versus MKK4
Details: Test conc 0.1 μM; ratio of percent of control; N/E* = PoC for JNK1 = 100
endpoint.label: Selectivity JNK1/MKK4

>  <smiles.structure>
CCCS(=O)(=O)Nc1ccc(F)c(C(=O)c2c[nH]c3ncc(-c4ccc(OCC5CC5)cc4Cl)cc23)c1F

>  <assayed.target>
JNK1 (Homo sapiens, UniProt P45983)

>  <Selectivity JNK1/MKK4>
2.2

$$$$

// next entry
# query: Selectivity JNK1/MKK4 of entry CCCCS(=O)(=O)Nc1cccc(C(=O)c2c[nH]c3ncc(-c4ccc(OC)cc4Cl)cc23)c1F 17

----------
Biological target: JNK1 (Homo sapiens, UniProt P45983)
Assay: KINOMEscan competition binding assay, selectivity JNK1 versus MKK4
Conditions: Test conc 0.1 μM; ratio of percent of control; N/E* = PoC for JNK1 = 100
endpoint.label: Selectivity JNK1/MKK4

# query: Selectivity JNK1/MKK4 of entry CCCS(=O)(=O)Nc1ccc(F)c(C(=O)c2c[nH]c3ncc(-c4ccccc4)cc23)c1F 28

----------
Biological target: MKK7 (Homo sapiens)
Sequence (O14733 whole entry): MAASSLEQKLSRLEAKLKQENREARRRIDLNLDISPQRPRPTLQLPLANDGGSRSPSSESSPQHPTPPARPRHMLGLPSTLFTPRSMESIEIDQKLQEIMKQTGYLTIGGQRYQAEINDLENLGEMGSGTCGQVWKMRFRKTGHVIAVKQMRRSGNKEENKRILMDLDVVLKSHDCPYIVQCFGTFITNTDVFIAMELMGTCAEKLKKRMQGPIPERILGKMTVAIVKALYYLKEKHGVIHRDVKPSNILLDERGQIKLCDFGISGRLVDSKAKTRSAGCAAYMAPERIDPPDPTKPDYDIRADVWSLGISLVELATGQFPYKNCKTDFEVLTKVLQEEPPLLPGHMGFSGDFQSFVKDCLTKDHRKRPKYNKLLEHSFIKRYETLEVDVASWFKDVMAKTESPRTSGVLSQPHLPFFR
Assay: KINOMEscan competition binding assay, selectivity MKK7 versus MKK4
Conditions: Test conc. 0.1 μM; ratio of percent of control; N/E* per footnote
What Selectivity MKK7/MKK4 was measured for each of the following?
One number for each entry.

>  <smiles.structure>
CCCS(=O)(=O)Nc1ccc(F)c(C(=O)c2c[nH]c3ncc(-c4cccc5ccccc45)cc23)c1F

>  <quantitative.result>
3

$$$$
>  <smiles.structure>
CCCS(=O)(=O)Nc1cc(C)cc(C(=O)c2c[nH]c3ncc(-c4ccc(Cl)cc4)cc23)c1

>  <quantitative.result>
1.0

$$$$
>  <smiles.structure>
CCCS(=O)(=O)Nc1ccc(F)c(C(=O)c2c[nH]c3ncc(-c4ccc(OC)cc4)cc23)c1F

>  <quantitative.result>
10

$$$$
>  <smiles.structure>
CCCS(=O)(=O)Nc1ccc(F)c(C(=O)c2c[nH]c3ncc(-c4cnc5ccccc5c4)cc23)c1F

>  <quantitative.result>
5.6

$$$$
>  <smiles.structure>
CS(=O)(=O)Nc1cccc(C(=O)c2c[nH]c3ncc(-c4ccc5c(c4)OCCO5)cc23)c1F

>  <quantitative.result>
19.6

$$$$
>  <smiles.structure>
CCCS(=O)(=O)Nc1ccc(F)c(C(=O)c2c[nH]c3ncc(-c4ccc(F)cc4)cc23)c1F

>  <quantitative.result>
25

$$$$
>  <smiles.structure>
CCCS(=O)(=O)Nc1ccc(F)c(C(=O)c2c[nH]c3ncc(-c4ccc5c(c4)OCCO5)cc23)c1F

>  <quantitative.result>
30

$$$$
>  <smiles.structure>
CCCS(=O)(=O)Nc1ccc(F)c(C(=O)c2c[nH]c3ncc(-c4ccc(F)c(F)c4)cc23)c1F

>  <quantitative.result>
8

$$$$

// next entry
Notebook: pull reported Selectivity MKK7/MKK4 for MKK7 (Homo sapiens), entry CCCCS(=O)(=O)Nc1cccc(C(=O)c2c[nH]c3ncc(-c4ccc5c(c4)OCCO5)cc23)c1F 61
